The origin of these recorded values is PubChem BioAssay (NCI).

Would you mind telling me the reported growth of each entry?
System: EKVX NSCLC
Assay: NCI-60 one-dose screen, 48 h (100 = growth as untreated, 0 = no growth, -100 = all killed)
Settings: 10 µM unless noted
About 83,000 compounds went through this panel and 20% of them were active in at least one assay; those are over-represented in the sample as a whole.
Give bare numbers, in %.

For orientation, consider the following solved cases.
Return the recorded growth value; entry: FC(F)(F)c1ccc2c(Nc3cccc(C4CC(c5ccccc5)=NN4c4ccc(Cl)cc4)c3)ccnc2c1 (stereo not drawn)
82.6

Return the recorded growth value; entry: CCC1=C[C@H]2CN(CCc3c([nH]c4ccccc34)[C@@](C(=O)OC)(c3cc4c(cc3OC)N(C)[C@H]3[C@@](O)(C(=O)OC)[C@H](OC(C)=O)[C@]5(CC)[C@@H]6C[C@@H]6CN6CC[C@]43[C@@H]65)C2)C1
35.5

Return the recorded growth value; entry: COc1cc(/C=C/C(=O)c2ccc(NC(=O)CSc3nnc(-c4cc(OC)c(OC)c(OC)c4)n3-c3ccccc3)cc2)cc(OC)c1OC
31.3

Hi! Can you tell me growth for each of these compounds?
1. Nc1ccccc1NS(=O)(=O)c1ccc(Cl)cc1
2. CCOC(=O)NCCc1nc2c([nH]1)c(=O)n(C)c(=O)n2C
3. C#CC[C@@H]1C[C@]2(C)[C@H]3CC[C@@H]4[C@H]5[C@H](C(=C)C)CC[C@]5(C(=O)O)CC[C@@]4(C)[C@]3(C)CC[C@H]2C(C)(C)[C@H]1O
4. CC1(C)[C@@H](O)CC[C@]2(C)[C@H]3CC[C@@H]4[C@H]5[C@H](c6cn(-c7ccccc7)nn6)CC[C@]5(CO)CC[C@@]4(C)[C@]3(C)CC[C@@H]12
5. COc1cc(NC(=O)c2cc(O)c(C/C=C(\C)CCC=C(C)C)c(O)c2)cc2c1O[C@]1(C)CC[C@@H](O)C(C)(C)[C@H]1C2

1. 98.4
2. 99.7
3. 55.4
4. 88
5. 26.1

Hi! Can you tell me growth for each of these compounds?
1. COc1cc(C2=NN(C=O)C(c3cccc(Nc4ccnc5cc(C(F)(F)F)ccc45)c3)C2)cc(OC)c1OC (stereo not drawn)
2. c1ccc2c3c([nH]c2c1)C(c1ccc(C2NCCc4c2[nH]c2ccccc42)cc1)NCC3 (stereo not drawn)
3. Cc1cnc(SCc2ccc(Cl)cc2Cl)nc1Nc1ccc(Cl)c(Cl)c1
4. O=c1[nH]c(-c2cccc(F)c2)cc2cc(F)ccc12
5. CN1CCN(/C=C2\CC(C(=O)NCc3ccc(Cl)cc3Cl)NC2=O)CC1 (stereo not drawn)
6. O=C1NCc2ccc3c(-c4cccc(Cl)c4)c[nH]c3c21
7. Cc1nc2sc(C(=O)Nc3cccc(Cl)c3C)c(N)c2cc1C(C)O (stereo not drawn)
8. CC(C)C[C@H](C(=O)O)N(C)C(=O)[C@@H]1CCCN1C(=O)[C@H](C)OC(=O)[C@H](CCC(N)=O)NC(=O)[C@@H]1CCC(=O)N1

1. 61.5
2. 20.6
3. 94.2
4. 39.3
5. 116
6. 28.7
7. 54.5
8. 94.1

Hi! Can you tell me growth for each of these compounds?
1. O=[N+]([O-])c1ccc(N=Nc2c(O)c(N=Nc3cc([N+](=O)[O-])cc([N+](=O)[O-])c3O)cc(N=Nc3cc(S(=O)(=O)O)cc4cc(S(=O)(=O)O)cc(O)c34)c2O)cc1
2. CCN(CC)CC#CCOC(=O)[C@]1(C)CCC[C@]2(C)[C@H]3C[C@H]4C(C(C)C)=C[C@]3(CC[C@H]21)[C@@H]1C(=O)CCC(=O)[C@@H]14
3. C=C1C(=O)O[C@H]2[C@H]1CC/C(COC(=O)NCc1nc3ccccc3[nH]1)=C\CC[C@@]1(C)O[C@@H]21
4. CN(C)CCCn1c2c(c3cc(-c4ccco4)ccc3c1=O)C(=O)c1ccccc1-2
5. COCCOCCOCc1n(Cc2ccc3ccccc3n2)c2ccccc2[n+]1Cc1ccc2ccccc2n1
6. COc1cc2c(Nc3ccc(NC(=O)Nc4ccc(Cl)c(C(F)(F)F)c4)c(Cl)c3)ncnc2cc1OCCCN1CCN(C)CC1
7. COC(=O)/C=C/c1cc(OC)c2c(c1)[C@@H](C(=O)OC)[C@H](c1ccc(OC)c(OC)c1)O2

102
55.9
83
81.4
71.6
52.5
38.5
